Hey, just so you know, these numbers are from PubChem BioAssay.

# protocol_details: inhibitors of TNFa-induced NFkB p65 translocation, primary screen, imaging, HUVEC, MLSMR starter and 10KST1 sets (AID 438);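 further: compound added about 3h40 before a 20 min TNFalpha stimulation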
# test_settings: HUVEC TNFa-induced p65 nuclear translocation; measured here: nuclei count (cytotoxicity indicator), at 2.08 µM
experimental_endpoint: cell count

| compound | experimental_endpoint | reading |
| --- | --- | --- |
| COc1ccc(C(=O)NCC(=O)NC2=NCCS2)cc1 | cell count | 772 |
| CCCCCOC(=O)C(C)c1c(C)[nH]c(=S)[nH]c1=O (stereo not given) | cell count | 628 |
| COC(=O)[C@@H](NC(=O)NCc1ccccc1Cl)C(C)C | cell count | 732 |
| Cc1ccc(S(=O)(=O)Nc2cc(C(=O)O)ccc2N2CCCCC2)cc1 | cell count | 518 |
| CCc1ccc(C2CC(c3ccccc3)n3ncnc3N2)cc1 (stereo not given) | cell count | 626 |
| CCOc1ccc(NC(=O)C(C)Sc2nnc(C)n2C)cc1 (stereo not given) | cell count | 574 |
| CCn1c(SCC(=O)N2CCOCC2)nc2sc3c(c2c1=O)CCCC3 | cell count | 577 |
| COc1cccc(NC(=O)C2CCCN(S(=O)(=O)c3cccc4cccnc34)C2)c1 (stereo not given) | cell count | 604 |
| Cc1cc(C)n(-c2nc3c(c(=O)n(Cc4ccc(Cl)c(Cl)c4)c(=O)n3C)n2C)n1 | cell count | 404 |
| COc1ccc(-n2c(SCc3ccc(C#N)cc3)nnc2-c2ccccn2)cc1 | cell count | 692 |
| COc1cccc(-c2nc3n(n2)C(c2cccs2)C(C(=O)Nc2cccnc2)=C(C)N3)c1 (stereo not given) | cell count | 735 |
| O=C(CN1CCc2[nH]c3ccccc3c2C1)N1CCCCC1 | cell count | 538 |
| Cc1ccc2[nH]c3c(c2c1)CN(C(=O)CN1CC(C)OC(C)C1)CC3 (stereo not given) | cell count | 409 |
| c1ccc2c(c1)[nH]c1c(N3CCSCC3)ncnc12 | cell count | 567 |
| CC(=O)NC(=O)Nc1sc(=S)n(C)c1C | cell count | 329 |
| CCOC(=O)CNC(=O)CSc1nc(N(C)C)nc(N2CCOCC2)n1 | cell count | 580 |
| O=C(NCc1ccco1)C1(S(=O)(=O)c2ccc(Cl)cc2)CC1 | cell count | 412 |
| COc1cc(NC(=O)Cc2ccccc2OC)cc(OC)c1 | cell count | 575 |
| Cc1ccc(-n2ncc3c(=O)n(CC(=O)NCc4ccco4)cnc32)cc1 | cell count | 473 |
| Nc1ccc2oc(-c3ccccc3Cl)nc2c1 | cell count | 644 |
